B1: INTS3 (parent)
chain: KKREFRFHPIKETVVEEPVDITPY

Variants of: B1
assay_comment: protein stability index of a GFP-peptide fusion (GPS, HEK-293T) (PSI 1-6); higher = more stable;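 note: lentivirally expressed fusions sorted by FACS into six bins by GFP to DsRed ratio, PSI derived from sequencing read proportions per bin multiplied by bin number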
condition_label: c terminus: a fixed tail appended
So basically: protein stability index at 2 or higher? That is Condition met. Lower than 2? That is Condition not met.

E4C
Condition met
R3A
Condition not met
K2I
Condition met
Y24E
Condition met
P9L
Condition not met

Given V19D , state whether its protein stability index is at least 2.
Condition met

Given F7S , state whether its protein stability index is at least 2.
Condition met

Given T13D , state whether its protein stability index is at least 2.
Condition met

Given Y24W , state whether its protein stability index is at least 2.
Condition not met

Given K1H , state whether its protein stability index is at least 2.
Condition not met

Given R6P , state whether its protein stability index is at least 2.
Condition met

Given P9Q , state whether its protein stability index is at least 2.
Condition met

Given P9A , state whether its protein stability index is at least 2.
Condition met

Given E17W , state whether its protein stability index is at least 2.
Condition met

Given T22H , state whether its protein stability index is at least 2.
Condition met

Given E4R , state whether its protein stability index is at least 2.
Condition met

Given F7M , state whether its protein stability index is at least 2.
Condition met

Given E4F , state whether its protein stability index is at least 2.
Condition not met
